The reported numbers originate from patent US10703721B2.

tested on: BT483; assay: Cytotoxicity assay (MTS, 72 hours); type: cell-based; conditions: Table 3, Breast
OBSERVABLE: IC50
A complete answer gives the number followed by the unit.

Value of IC50 reported for the compound C[C@H](NC(=O)/C(C#N)=C/c1cccc(Br)n1)c1ccccc1 [WP1066, reference compound] is 4.2 µM

====

system: WM793; assay: Cytotoxicity assay (MTS, 72 hours); assay type: cell-based, human; conditions: Table 3, Melanoma
OBSERVABLE: pIC50
// pIC50 here means minus log10 of the molar concentration (mol/L)

Value of pIC50 reported for the compound C[C@H](NC(=O)/C(C#N)=C/c1cccc(Br)n1)c1ccccc1 [WP1066, reference compound] is 5.68

====

system: SK-MEL-28; test: Cytotoxicity assay (MTS, 72 hours); type: cell-based; settings: Table 3, Melanoma
OBSERVABLE: pIC50
// pIC50 here means minus log10 of the molar concentration (mol/L)

Value (pIC50, SK-MEL-28) for record C[C@H](NC(=O)/C(C#N)=C/c1cccc(Br)n1)c1ccccc1 [WP1066, reference compound] = 5.70

====

test system: Colo357-FG; assay: Cytotoxicity assay (MTS, 72 hours); format: cell-based, human; details: Homo sapiens, COLO 357/FG, 72 h, Table 3, Panc
OBSERVABLE: pIC50
// pIC50 here means minus log10 of the molar concentration (mol/L)

Value (pIC50, Colo357-FG) for record "CCC(CC)(NC(=O)/C(C#N)=C/c1cccc(Cl)n1)c1ccc(OCCOCCN2CCN(C)CC2)cc1" = 5.59

====

Reported pIC50 values follow for various molecules
system: Colo357-FG; test: Cytotoxicity assay (MTS, 72 hours); type: cell-based, human; details: Table 2, Colo357-FG
// pIC50 here means minus log10 of the molar concentration (mol/L)

Solved cases below.
> print(dat)
                                   molecule  recorded.measurement
1  C[C@H](NC(=O)/C(C#N)=C/c1cccc(Br)n1)c1ccccc1 [WP1066, reference compound]                  5.68
2  CCN(CC)CCOc1ccc(C(CC)(CC)NC(=O)/C(C#N)=C/c2cccc(Cl)n2)cc1 [WP 1722]                  5.92

Value of pIC50 reported for the molecule CCC(CC)(NC(=O)/C(C#N)=C/c1cccc(Cl)n1)c1ccc(OCCN2CCOCC2)cc1 [WP 1793] is 6.10
